- Tested on: LOC_OS04G38480-cb003
- Sequence (as listed by the source): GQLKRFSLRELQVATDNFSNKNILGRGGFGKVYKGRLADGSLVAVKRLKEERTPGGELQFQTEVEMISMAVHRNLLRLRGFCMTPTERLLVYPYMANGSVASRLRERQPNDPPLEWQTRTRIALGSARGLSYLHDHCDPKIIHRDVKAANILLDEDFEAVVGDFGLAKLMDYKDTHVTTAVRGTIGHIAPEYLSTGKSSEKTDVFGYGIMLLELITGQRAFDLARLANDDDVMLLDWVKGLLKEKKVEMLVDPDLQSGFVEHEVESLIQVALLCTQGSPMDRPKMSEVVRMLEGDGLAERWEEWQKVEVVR
- PROCEDURE SUMMARY: thermal shift delta Tm vs DMSO control; higher = stronger stabilization (binding);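 further: purified Escherichia coli-expressed rice kinase domain construct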
- TEST CONTEXT: 12.5 µM; protein concentration 2 µM
PROPERTY NAME: thermal shift delta Tm (°C)
Express it in °C; write the number only.

// known answers, use as guide
Short answer on LOC_OS04G38480-cb003 for CCN(CC)CCCC(C)Nc1ccnc2cc(Cl)ccc12 (centres undefined) [Chloroquine Phosphate] , thermal shift delta Tm: 2.48

Short answer on LOC_OS04G38480-cb003 for CCc1nc(-c2cccc(C)c2)c(-c2ccnc(NC(=O)c3ccccc3)c2)s1 , thermal shift delta Tm: 0.74

Short answer on LOC_OS04G38480-cb003 for O=C(c1ccc(F)c(F)c1Nc1ccc(I)cc1F)N1CC(O)([C@@H]2CCCCN2)C1 , thermal shift delta Tm: 0.54

Short answer on LOC_OS04G38480-cb003 for Cc1ccc(S(=O)(=O)/C=C/C#N)cc1 , thermal shift delta Tm: 0.47

New cases:
Short answer on LOC_OS04G38480-cb003 for C=CC(=O)Nc1cccc(Oc2nc(Nc3ccc(N4CCN(C)CC4)cc3)ncc2Cl)c1 , thermal shift delta Tm: 1.67

Short answer on LOC_OS04G38480-cb003 for C=CC(=O)Nc1cccc(Nc2nc(Nc3ccc(N4CCN(C(C)=O)CC4)cc3OC)ncc2C(F)(F)F)c1 , thermal shift delta Tm: 0.94

Short answer on LOC_OS04G38480-cb003 for CCc1cncnc1N1CCN(Cc2nc3ccc(C(F)(F)F)cc3[nH]2)CC1 , thermal shift delta Tm: 0.52

Short answer on LOC_OS04G38480-cb003 for O=c1cc(N2CCOCC2)oc2c1ccc1ccccc12 , thermal shift delta Tm: 2.01

Short answer on LOC_OS04G38480-cb003 for N#Cc1ccc2ncnc(NCCc3ccccc3)c2c1 , thermal shift delta Tm: 1.69

----------
- Tested on: LOC_OS01G39600-cb002
- PROCEDURE SUMMARY: thermal shift delta Tm vs DMSO control; higher = stronger stabilization (binding)
- TEST CONTEXT: 12.5 µM; protein concentration 2 µM
Lab note: anything with thermal shift delta Tm at or over 0.9 °C counts as YES; the rest go in NO.

Completed entries (count: 8):
Request: Answer whether thermal shift delta Tm of COc1cc2ncnc(Nc3ccc(F)c(Cl)c3)c2cc1NC(=O)/C=C/CN1CCCCC1 is greater than or equal to 0.9 °C.
Response: NO

Request: Answer whether thermal shift delta Tm of CN1CCC(Nc2nc(Nc3ccc(Oc4ccccc4)cc3)c3c(=O)[nH]cc(Br)c3n2)CC1 is greater than or equal to 0.9 °C.
Response: NO

Request: Answer whether thermal shift delta Tm of Cc1ccc([N+](=O)[O-])cc1S(=O)(=O)N(C)/N=C/c1cnc2ccc(Br)cn12 is greater than or equal to 0.9 °C.
Response: YES

Request: Answer whether thermal shift delta Tm of CC(C)(C)c1cc(NC(=O)Nc2ccc(-c3cn4c(n3)sc3cc(OCCN5CCOCC5)ccc34)cc2)no1 is greater than or equal to 0.9 °C.
Response: NO

Request: Answer whether thermal shift delta Tm of Cc1cc2c(F)c(Oc3ncnn4cc(OC[C@@H](C)OC(=O)[C@H](C)N)c(C)c34)ccc2[nH]1 is greater than or equal to 0.9 °C.
Response: NO

Request: Answer whether thermal shift delta Tm of NC1(c2ccc(-c3nc4ccn5c(=O)[nH]nc5c4cc3-c3ccccc3)cc2)CCC1 is greater than or equal to 0.9 °C.
Response: NO

Request: Answer whether thermal shift delta Tm of OC1CCC(Oc2cccc3cnc(Nc4ccc5nc[nH]c5c4)nc23)CC1 (stereo unspecified) is greater than or equal to 0.9 °C.
Response: YES

Request: Answer whether thermal shift delta Tm of CCN(C)S(=O)(=O)Nc1ccc(F)c(C(=O)c2c[nH]c3ncc(-c4cnc(C5CC5)nc4)cc23)c1F is greater than or equal to 0.9 °C.
Response: YES

New cases:
Request: Answer whether thermal shift delta Tm of N#Cc1cnc(Nc2cc(NC[C@H]3CNCCO3)c(C(F)(F)F)cn2)cn1 is greater than or equal to 0.9 °C.
Response: YES

Request: Answer whether thermal shift delta Tm of CCNC(=O)Nc1ccc(-c2nc3c(c(N4CCOC[C@@H]4C)n2)CCN(C2COC2)C3)cc1 is greater than or equal to 0.9 °C.
Response: NO

Request: Answer whether thermal shift delta Tm of CCOc1cn(-c2ccc(F)cc2C)nc1C(=O)Nc1ccc(Oc2ccnc3cc(OC)c(OC)cc23)c(F)c1 is greater than or equal to 0.9 °C.
Response: NO
